Protein target, amino acids: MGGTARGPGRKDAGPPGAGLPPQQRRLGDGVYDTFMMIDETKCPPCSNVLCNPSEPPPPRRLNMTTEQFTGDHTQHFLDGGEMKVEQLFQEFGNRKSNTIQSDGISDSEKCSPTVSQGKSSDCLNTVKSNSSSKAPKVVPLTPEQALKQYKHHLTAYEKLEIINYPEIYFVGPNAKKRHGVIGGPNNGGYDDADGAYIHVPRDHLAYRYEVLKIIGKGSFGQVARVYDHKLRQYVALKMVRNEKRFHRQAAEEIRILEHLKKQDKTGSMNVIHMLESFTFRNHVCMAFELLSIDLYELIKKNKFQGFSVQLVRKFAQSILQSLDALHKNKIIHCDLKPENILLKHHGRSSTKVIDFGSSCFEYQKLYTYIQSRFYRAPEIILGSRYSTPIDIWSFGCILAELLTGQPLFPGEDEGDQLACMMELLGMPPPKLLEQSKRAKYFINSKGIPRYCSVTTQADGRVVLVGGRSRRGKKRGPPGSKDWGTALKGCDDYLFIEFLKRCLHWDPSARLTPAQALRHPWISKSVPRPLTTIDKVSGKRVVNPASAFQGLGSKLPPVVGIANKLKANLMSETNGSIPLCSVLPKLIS

{"Compound": "CN1CC[C@@](C)(NC2=N/C(=C\\c3ccc4ncsc4c3)C(=O)N2)C1=O (stereo in doubt)", "Units symbol": "µM", "Cmp": "=", "IC50": 0.39}
{"Compound": "Cc1ccc(CNC2=N/C(=C\\c3ccc4ncsc4c3)C(=O)N2)c(C)c1", "Units symbol": "µM", "Cmp": "=", "IC50": 4.2}
{"Compound": "O=C1NC(NC2CC3CCC2C3)=N/C1=C\\c1ccc2ncsc2c1 (racemic)", "Units symbol": "µM", "Cmp": "=", "IC50": 0.337}
{"Compound": "Cc1ccc(CNC2=N/C(=C\\c3ccc4ncsc4c3)C(=O)N2)cc1C", "Units symbol": "µM", "Cmp": ">", "IC50": 10}

----------
pIC50: −log10 of the molar value.
Target or system Glycogen synthase kinase-3 beta (Homo sapiens, UniProt P49841); recorded quantity pIC50.

{"Compound": "Cn1ccc2cc(/C=C3\\N=C(NC4CCCCCC4)NC3=O)ccc21", "pIC50": "< 5.00"}
{"Compound": "O=C1NC(NC2CCCNC2=O)=N/C1=C\\c1ccc2ncsc2c1 (racemic)", "pIC50": "< 5.00"}
{"Compound": "O=C1NC(NC2CCCCCC2)=N/C1=C\\c1ccc2scnc2c1", "pIC50": "< 5.00"}

----------
pIC50: −log10 of the molar value.
Quick record: pIC50, Dual specificity tyrosine-phosphorylation-regulated kinase 3 (Homo sapiens).

{"Compound": "O=C1NC(NC23CC4CC(CC(C4)C2)C3)=N/C1=C\\c1ccc2[nH]ccc2c1", "Cmp": "<", "pIC50": 5.00}
{"Compound": "O=C1NC(NC23CC4CC(CC(C4)C2)C3)=N/C1=C\\c1ccc2scnc2c1", "Cmp": "<", "pIC50": 5.00}
{"Compound": "Cn1cc2cc(/C=C3\\N=C(NC4CCCCC4)NC3=O)ccc2n1", "Cmp": "=", "pIC50": 5.38}
{"Compound": "O=C1NC(NCC2CCOCC2)=N/C1=C\\c1ccc2ncsc2c1", "Cmp": "=", "pIC50": 5.95}
{"Compound": "O=C1NC(NCc2ccccc2OC(F)(F)F)=N/C1=C\\c1ccc2ncsc2c1", "Cmp": "<", "pIC50": 5.00}
{"Compound": "Cn1ncc2cc(/C=C3\\N=C(NC45CC6CC(CC(C6)C4)C5)NC3=O)ccc21", "Cmp": "=", "pIC50": 6.51}
{"Compound": "O=C1NC(NC23CC4(F)CC(F)(CC(F)(C4)C2)C3)=N/C1=C\\c1ccc2ncsc2c1", "Cmp": "=", "pIC50": 8.70}
{"Compound": "O=C1NC(NC2CCCCC2(F)F)=N/C1=C\\c1ccc2ncsc2c1 (racemic)", "Cmp": "=", "pIC50": 6.92}
{"Compound": "COC(=O)[C@@H](CC(C)C)NC1=N/C(=C\\c2ccc3ncsc3c2)C(=O)N1", "Cmp": "=", "pIC50": 5.30}
{"Compound": "CO[C@@H]1Cc2ccccc2[C@H]1NC1=N/C(=C\\c2ccc3ncsc3c2)C(=O)N1 (racemic)", "Cmp": "=", "pIC50": 6.13}
{"Compound": "Cn1cnc2cc(/C=C3\\N=C(NC4CCCCC4)NC3=O)ccc21", "Cmp": "<", "pIC50": 5.00}
{"Compound": "O=C1NC(N[C@@H](CO)CC2CCC2)=N/C1=C\\c1ccc2ncsc2c1", "Cmp": "=", "pIC50": 5.90}
{"Compound": "COC(=O)[C@@H](NC1=N/C(=C\\c2ccc3ncsc3c2)C(=O)N1)C(C)C", "Cmp": "=", "pIC50": 6.25}
{"Compound": "Cc1nc2ccc(/C=C3\\N=C(NC4CCCCCC4)NC3=O)cc2s1", "Cmp": "=", "pIC50": 5.49}
{"Compound": "CN1CCCC(NC2=N/C(=C\\c3ccc4ncsc4c3)C(=O)N2)C1=O (racemic)", "Cmp": "=", "pIC50": 5.53}
{"Compound": "O=C1NC(N[C@@H]2CN3CCC2CC3)=N/C1=C\\c1ccc2ncsc2c1", "Cmp": "=", "pIC50": 6.32}
{"Compound": "O=C1NC(NC2CCCSC2)=N/C1=C\\c1ccc2ncsc2c1 (racemic)", "Cmp": "=", "pIC50": 6.47}

----------
Sequence of the target: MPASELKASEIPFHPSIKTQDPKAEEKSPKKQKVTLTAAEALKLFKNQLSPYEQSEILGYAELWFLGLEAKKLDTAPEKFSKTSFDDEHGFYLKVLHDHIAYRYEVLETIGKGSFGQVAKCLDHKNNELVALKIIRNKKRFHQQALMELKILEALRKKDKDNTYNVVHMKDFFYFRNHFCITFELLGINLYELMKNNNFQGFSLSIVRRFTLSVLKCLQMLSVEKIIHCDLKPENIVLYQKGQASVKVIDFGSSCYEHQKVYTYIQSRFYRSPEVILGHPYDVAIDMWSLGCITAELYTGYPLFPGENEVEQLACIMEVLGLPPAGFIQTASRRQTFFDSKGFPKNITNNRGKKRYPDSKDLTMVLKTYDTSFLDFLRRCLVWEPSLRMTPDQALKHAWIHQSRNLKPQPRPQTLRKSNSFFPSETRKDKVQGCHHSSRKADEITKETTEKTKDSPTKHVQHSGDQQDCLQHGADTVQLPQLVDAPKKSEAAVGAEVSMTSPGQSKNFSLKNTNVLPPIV
pIC50: −log10 of the molar value.

{"Molecule": "O=C1NC(NC2CCCCCC2)=N/C1=C\\c1ccc2[nH]ccc2c1", "Cmp": "<", "pIC50": 5.00}
{"Molecule": "CC(C)C[C@H](COCc1ccccc1)NC1=N/C(=C\\c2ccc3ncsc3c2)C(=O)N1", "Cmp": "=", "pIC50": 5.57}
{"Molecule": "COC(=O)[C@H](CC(C)C)NC1=N/C(=C\\c2ccc3ncsc3c2)C(=O)N1", "Cmp": "=", "pIC50": 6.09}
{"Molecule": "CN1CC[C@](C)(NC2=N/C(=C\\c3ccc4ncsc4c3)C(=O)N2)C1=O (stereo in doubt)", "Cmp": "=", "pIC50": 5.77}
{"Molecule": "CCOC[C@@H](CC(C)C)NC1=N/C(=C\\c2ccc3ncsc3c2)C(=O)N1", "Cmp": "=", "pIC50": 6.01}
{"Molecule": "Cn1ccc2cc(/C=C3\\N=C(NC4CCCCC4)NC3=O)ccc21", "Cmp": "<", "pIC50": 5.00}

----------
Measurement target: Dual specificity protein kinase CLK2 (Homo sapiens)
Sequence (P49760 whole entry): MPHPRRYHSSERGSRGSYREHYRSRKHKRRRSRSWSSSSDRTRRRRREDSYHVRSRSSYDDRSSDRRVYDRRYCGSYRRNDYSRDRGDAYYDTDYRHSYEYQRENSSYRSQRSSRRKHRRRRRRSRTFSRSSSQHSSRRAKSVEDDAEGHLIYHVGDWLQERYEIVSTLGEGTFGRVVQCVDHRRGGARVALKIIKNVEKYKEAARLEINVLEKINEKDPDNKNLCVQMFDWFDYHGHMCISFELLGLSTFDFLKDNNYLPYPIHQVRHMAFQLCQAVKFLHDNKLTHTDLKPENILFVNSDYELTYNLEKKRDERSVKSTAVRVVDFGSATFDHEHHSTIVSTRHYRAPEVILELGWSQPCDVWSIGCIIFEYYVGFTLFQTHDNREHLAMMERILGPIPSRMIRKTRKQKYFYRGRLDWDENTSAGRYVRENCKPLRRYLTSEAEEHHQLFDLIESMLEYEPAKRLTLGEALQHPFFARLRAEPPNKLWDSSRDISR
Parameter measured: log10(IC50) (log10 of the value in µM)

{"Molecule": "Cc1nc2ccc(/C=C3\\N=C(NC4CCCCCC4)NC3=O)cc2s1", "log10(IC50)": 0.75}
{"Molecule": "O=C1NC(NCC(O)C2CCCCC2)=N/C1=C\\c1ccc2ncsc2c1 (racemic)", "log10(IC50)": -1.34}
{"Molecule": "CC(=O)N1CCc2ccc(NC3=N/C(=C\\c4ccc5ncsc5c4)C(=O)N3)cc21", "log10(IC50)": -0.06}
{"Molecule": "O=C1NC(Nc2ncccn2)=N/C1=C\\c1ccc2ncsc2c1", "log10(IC50)": -0.20}
{"Molecule": "CC(C)(C)OC(=O)N1CCC(CNC2=N/C(=C\\c3ccc4ncsc4c3)C(=O)N2)CC1", "log10(IC50)": 0.34}
{"Molecule": "CCCCCCc1ccc(NC2=N/C(=C\\c3ccc4ncsc4c3)C(=O)N2)cc1", "log10(IC50)": 1.15}

----------
Record type: pIC50 measurement. Applies to: UniProtKB P49761
Sequence (P49761 whole entry): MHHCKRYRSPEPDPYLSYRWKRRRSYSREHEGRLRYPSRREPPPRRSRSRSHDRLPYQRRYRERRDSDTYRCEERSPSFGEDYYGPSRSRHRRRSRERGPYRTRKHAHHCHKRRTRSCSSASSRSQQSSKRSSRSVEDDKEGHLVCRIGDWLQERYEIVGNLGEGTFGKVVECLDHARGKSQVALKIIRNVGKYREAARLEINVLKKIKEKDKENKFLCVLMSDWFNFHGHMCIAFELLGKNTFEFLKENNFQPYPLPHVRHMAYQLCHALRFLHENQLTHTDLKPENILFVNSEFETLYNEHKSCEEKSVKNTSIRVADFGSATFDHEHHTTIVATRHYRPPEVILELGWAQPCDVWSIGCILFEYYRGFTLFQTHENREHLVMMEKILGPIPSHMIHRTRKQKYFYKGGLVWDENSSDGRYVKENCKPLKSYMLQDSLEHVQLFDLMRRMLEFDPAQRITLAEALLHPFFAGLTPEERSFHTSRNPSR
pIC50: −log10 of the molar value.

{"Compound": "CO[C@H]1CCCC[C@H]1NC1=N/C(=C\\c2ccc3ncsc3c2)C(=O)N1 (racemic)", "Cmp": "=", "pIC50": 5.95}
{"Compound": "CC(=O)OC12CC3CC(CC(NC4=N/C(=C\\c5ccc6ncsc6c5)C(=O)N4)(C3)C1)C2", "Cmp": "=", "pIC50": 5.78}
{"Compound": "Cn1cnc2cc(/C=C3\\N=C(NC45CC6CC(CC(C6)C4)C5)NC3=O)ccc21", "Cmp": "<", "pIC50": 5.00}
{"Compound": "C[C@@H]1CCCC[C@H]1NC1=N/C(=C\\c2ccc3ncsc3c2)C(=O)N1 (racemic)", "Cmp": "=", "pIC50": 6.04}
{"Compound": "O=C1NC(NCc2cccnc2)=N/C1=C\\c1ccc2ncsc2c1", "Cmp": "=", "pIC50": 6.15}
{"Compound": "O=C1CC[C@H](NC2=N/C(=C\\c3ccc4ncsc4c3)C(=O)N2)CN1", "Cmp": "=", "pIC50": 5.94}
{"Compound": "O=C1NC(Nc2ncccn2)=N/C1=C\\c1ccc2ncsc2c1", "Cmp": "=", "pIC50": 5.64}
{"Compound": "C[C@@H](NC1=N/C(=C\\c2ccc3ncsc3c2)C(=O)N1)C1CCCCC1", "Cmp": "=", "pIC50": 5.52}
{"Compound": "CC(C)(C)OC[C@H](NC1=N/C(=C\\c2ccc3ncsc3c2)C(=O)N1)c1ccccc1", "Cmp": "=", "pIC50": 5.68}
{"Compound": "COc1nc(C)ccc1NC1=N/C(=C\\c2ccc3ncsc3c2)C(=O)N1", "Cmp": "<", "pIC50": 5.00}
{"Compound": "Cc1nc2ccc(/C=C3\\N=C(NC4CCCCCC4)NC3=O)cc2s1", "Cmp": "<", "pIC50": 5.00}
{"Compound": "O=C1NC(NC23CC4CC(CC2C4)C3)=N/C1=C\\c1ccc2ncsc2c1", "Cmp": "=", "pIC50": 6.94}
{"Compound": "O=C1NC(N[C@@H]2c3ccccc3C[C@H]2O)=N/C1=C\\c1ccc2ncsc2c1", "Cmp": "=", "pIC50": 5.69}
{"Compound": "COC(=O)C1(NC2=N/C(=C\\c3ccc4ncsc4c3)C(=O)N2)C2CC3CC(C2)CC1C3 (configuration not stated)", "Cmp": "=", "pIC50": 6.78}
{"Compound": "O=C1NC(NC23CC4CC(CC(C4)C2)C3)=N/C1=C\\c1ccc2[nH]ccc2c1", "Cmp": "<", "pIC50": 5.00}
{"Compound": "CC(C)C[C@@H](CF)NC1=N/C(=C\\c2ccc3ncsc3c2)C(=O)N1", "Cmp": "=", "pIC50": 5.86}
{"Compound": "O=C1NC(NC23CC4(F)CC(F)(CC(F)(C4)C2)C3)=N/C1=C\\c1ccc2ncsc2c1", "Cmp": "=", "pIC50": 7.05}
{"Compound": "CN1CC[C@](C)(NC2=N/C(=C\\c3ccc4ncsc4c3)C(=O)N2)C1=O (stereo in doubt)", "Cmp": "=", "pIC50": 6.03}
{"Compound": "O=C1NC(N[C@@H]2CCC[C@H]2O)=N/C1=C\\c1ccc2ncsc2c1 (racemic)", "Cmp": "=", "pIC50": 6.65}
{"Compound": "CN1CCC(CNC2=N/C(=C\\c3ccc4ncsc4c3)C(=O)N2)CC1", "Cmp": "<", "pIC50": 5.00}
{"Compound": "O=C1NC(Nc2cccnc2)=N/C1=C\\c1ccc2ncsc2c1", "Cmp": "=", "pIC50": 6.70}
{"Compound": "CCCCCCc1ccc(NC2=N/C(=C\\c3ccc4ncsc4c3)C(=O)N2)cc1", "Cmp": "<", "pIC50": 5.00}
{"Compound": "O=C1NC(NC2CCCC(F)(F)C2)=N/C1=C\\c1ccc2ncsc2c1 (racemic)", "Cmp": "=", "pIC50": 6.76}
{"Compound": "Cn1cc2cc(/C=C3\\N=C(NC4CCCCC4)NC3=O)ccc2n1", "Cmp": "=", "pIC50": 5.34}
{"Compound": "CC(NC1=N/C(=C\\c2ccc3ncsc3c2)C(=O)N1)C12CC3CC(CC(C3)C1)C2 (racemic)", "Cmp": "=", "pIC50": 5.29}
{"Compound": "Cn1cnc2ccc(/C=C3\\N=C(NC4CCCCC4)NC3=O)cc21", "Cmp": "=", "pIC50": 5.97}
{"Compound": "O=C1NC(NC2CCCCCC2)=N/C1=C\\c1ccc2c(c1)CCO2", "Cmp": "<", "pIC50": 5.00}
{"Compound": "O=C1NC(NC2CC3CCC2C3)=N/C1=C\\c1ccc2ncsc2c1 (racemic)", "Cmp": "=", "pIC50": 6.84}
{"Compound": "CC1(C)CCC(NC2=N/C(=C\\c3ccc4ncsc4c3)C(=O)N2)CO1 (racemic)", "Cmp": "=", "pIC50": 6.45}
{"Compound": "Cn1cnc2ccc(/C=C3\\N=C(NC45CC6CC(CC(C6)C4)C5)NC3=O)cc21", "Cmp": "=", "pIC50": 5.98}
{"Compound": "O=C1NC(NC2CCCCCC2)=N/C1=C\\c1ccc2scnc2c1", "Cmp": "<", "pIC50": 5.00}
{"Compound": "O=C1NC(NC23CC4CC(CC(C4)C2)C3)=N/C1=C\\c1ccc2scnc2c1", "Cmp": "<", "pIC50": 5.00}
{"Compound": "CC1(NC2=N/C(=C\\c3ccc4ncsc4c3)C(=O)N2)CCNC1=O (racemic)", "Cmp": "=", "pIC50": 6.27}
{"Compound": "O=C1NC(NC2CCCCCC2)=N/C1=C\\c1ccc2[nH]cnc2c1", "Cmp": "=", "pIC50": 5.81}
{"Compound": "CO[C@H]1CC[C@H](NC2=N/C(=C\\c3ccc4ncsc4c3)C(=O)N2)CC1", "Cmp": "=", "pIC50": 6.06}
{"Compound": "Cn1cnc2ccc(/C=C3\\N=C(NC4CCCCCC4)NC3=O)cc21", "Cmp": "=", "pIC50": 6.09}
{"Compound": "O=C1NC(Nc2ccccc2)=N/C1=C\\c1ccc2ncsc2c1", "Cmp": "=", "pIC50": 6.16}

Just for reference, ChEMBL document CHEMBL5360622 is where these values come from.
